# Test system: Desulfovibrio desulfuricans G100A
# assayExplanation: microbe, parasite or virus in culture
# Type: cell-based
# measurementParameters: Desulfovibrio desulfuricans, G100A, read-out: % Inhib. (inhibition of sulfide production)
Where a name gives a salt, the structure may show the parent alone.
inhibition at 10 ppm values, listed per item
assayReadout: inhibition at 10 ppm

* C=CS(=O)(=O)c1cccc(Nc2cc(S(=O)(=O)O)c(N)c3c2C(=O)c2ccccc2C3=O)c1 [Acid blue 215, monosodium salt] | 19.7%
* CC(=O)Nc1ccc(Nc2cc(S(=O)(=O)O)c(N)c3c2C(=O)c2ccccc2C3=O)cc1 | 12.5%
* O=C1c2ccc(O)cc2C(=O)c2c1ccc(O)c2O [Anthrapurpurin, 1,2,7-Trihydroxyanthraquinone] | 37.5%
* Nc1c(O)c(S(=O)(=O)O)c(O)c2c1C(=O)c1ccccc1C2=O [Nuclear fast red, monosodium salt] | 20.4%
* Nc1c(S(=O)(=O)O)cc(Nc2ccc(S(=O)(=O)O)c(Nc3nc(Cl)nc(Nc4cccc(S(=O)(=O)O)c4)n3)c2)c2c1C(=O)c1ccccc1C2=O | 0%
* COc1ccc(N)c2c1C(=O)c1ccccc1C2=O | 57.1%
* Nc1cccc2c1C(=O)c1ccccc1C2=O | 28.4%

###

# Tested on: Desulfovibrio desulfuricans G100A
# assayExplanation: microbe, parasite or virus in culture
# Assay type: cell-based
# measurementParameters: Desulfovibrio desulfuricans, G100A, read-out: % Inhib. (inhibition of sulfide production)
inhibition at 10 ppm values, listed per item
assayReadout: inhibition at 10 ppm (%)

- Nc1c(Br)cc(Br)c2c1C(=O)c1ccccc1C2=O [1-Amino-2,4-dibromoanthraquinone]: 44.6
- O=C1c2cccc(O)c2C(=O)c2cccc(O)c21 [1,5-Dihydroxyanthraquinone]: 31
- O=C1c2ccccc2C(=O)c2c1cccc2N(NS(=O)(=O)O)S(=O)(=O)O: 10
- Cc1ccc(Nc2ccc(Nc3ccc(C)cc3S(=O)(=O)O)c3c2C(=O)c2ccccc2C3=O)c(S(=O)(=O)O)c1 [Acid green 25]: 38.8

###

inhibition at 10 ppm values, listed per item
# Test system: Desulfovibrio desulfuricans G100A
# assayExplanation: microbe, parasite or virus in culture
# Type: cell-based
# measurementParameters: Desulfovibrio desulfuricans, G100A, read-out: % Inhib. (inhibition of sulfide production)
Counter-ions that a name gives are not always drawn.
assayReadout: inhibition at 10 ppm (%)

• Nc1ccc2c(c1N)C(=O)c1ccccc1C2=O [1,2-Diaminoanthraquinone] = 28.9
• Nc1c(S(=O)(=O)O)cc(Nc2ccc(S(=O)(=O)O)c(Nc3nc(Cl)nc(Cl)n3)c2)c2c1C(=O)c1ccccc1C2=O [reactive blue 4] = 7.3
• O=C(O)c1ccccc1Nc1cccc2c1C(=O)c1cccc(Nc3ccccc3C(=O)O)c1C2=O [Acridylic acid] = 33.5
• O=C1c2c(O)ccc(O)c2C(=O)c2c(O)c(O)c(O)c(O)c21 [Alizarin cyanin, 1,2,3,4,5,8-Hexahydroxyanthraquinone] = 40.6
• Nc1ccc2c(c1)C(=O)c1ccc(N)cc1C2=O [2,6-Diaminoanthraquinone] = 27.2
• Cc1cc(O)c2c(c1O)C(=O)c1c(O)ccc(O)c1C2=O [Cynodontin] = 34.4
• Cc1cc(O)c2c(c1)C(=O)c1c(O)ccc(O)c1C2=O [Helminthosporin] = 31.3
• O=C1c2cccc(O)c2C(=O)c2c(O)cccc21 [1,8-Dihydroxyanthraquinone] = 82.2
• O=C1c2ccccc2C(=O)c2c1ccc(O[C@@H]1O[C@H](CO[C@@H]3OC[C@@H](O)[C@H](O)[C@H]3O)[C@@H](O)[C@H](O)[C@H]1O)c2O [Ruberythric acid] = 29.7
• O=C1c2cccc(S(=O)(=O)O)c2C(=O)c2cccc(S(=O)(=O)O)c21 [hydrate] = 17.5
• O=C1c2ccccc2C(=O)c2c(O)c(S(=O)(=O)O)c(Oc3ccc(S(=O)(=O)O)cc3)c(O)c21 = 28.1
• O=C1c2ccc3nc(-c4ccccc4)sc3c2C(=O)c2ccc3nc(-c4ccccc4)sc3c21 [Indanthrene yellow GCN] = 15.6
• Nc1ccc2c(c1)C(=O)c1ccccc1C2=O [2-Aminoanthraquinone] = 30.4
• O=c1c2ccccc2c(=O)c2c1cc(Cl)c1[nH]c3c([nH]c12)c(Cl)cc1c(=O)c2ccccc2c(=O)c13 [7,16-Dichloroindanthrone] = 43.8
• O=C1c2cccc(O)c2C(=O)c2c(O)cc(CO)cc21 [Aloe-emodin] = 43.8
• Cc1ccc(Nc2cccc3c2C(=O)c2cccc(Nc4ccc(C)cc4S(=O)(=O)O)c2C3=O)c(S(=O)(=O)O)c1 [Alizarin violet 3R] = 30.9
• O=C1c2ccc(O)c(O)c2C(=O)c2c(O)ccc(O)c21 [Quinalizarin, 1,2,5,8-Tetrahydroxyanthraquinone] = 80
• O=C1c2ccccc2C(=O)c2c(O)cccc21 [1-Hydroxyanthraquinone] = 59.3
• O=C1c2c(Br)cc(Br)c(O)c2C(=O)c2c(O)c(Br)cc(Br)c21 [2,4,5,7-Tetrabromochrysazin] = 40.6
• Nc1cc(S(=O)(=O)O)c(O)c2c1C(=O)c1c(O)c(S(=O)(=O)O)cc(N)c1C2=O [Acid blue 45] = 0
• CC(=O)N(C)c1ccc(Nc2cc(S(=O)(=O)O)c(N)c3c2C(=O)c2ccccc2C3=O)cc1 [Acid blue 41] = 0
• Nc1ccc(N)c2c1C(=O)c1ccccc1C2=O [1,4-Diaminoanthraquinone] = 27.5
• CNc1ccc(Nc2ccc(C)cc2S(=O)(=O)O)c2c1C(=O)c1ccccc1C2=O [Alizarine astrol B-CF, monosodium salt] = 2.6
• O=C1c2cccc(S(=O)(=O)O)c2C(=O)c2cccc([N+](=O)[O-])c21 [5-Nitroanthraquinone-1-sulfonic acid] = 66
• O=C1c2ccc(S(=O)(=O)O)cc2C(=O)c2ccc(S(=O)(=O)O)cc21 = 9.8
• Cc1cc(C)c(S(=O)(=O)O)c(C)c1Nc1ccc(Nc2c(C)cc(C)c(S(=O)(=O)O)c2C)c2c1C(=O)c1ccccc1C2=O [Acid blue 80] = 0
• O=C1c2ccccc2C(=O)c2ccccc21 [Anthraquinone] = 37.5
• COc1cc(O)c2c(c1)C(=O)c1cc(C)cc(O)c1C2=O [Physcion] = 34.4
• Cc1cc(O)c2c(c1O)C(=O)c1cccc(O)c1C2=O [Islandicin] = 50
• Nc1c(S(=O)(=O)O)cc(Br)c2c1C(=O)c1ccccc1C2=O = 4.3
• O=C1c2ccccc2C(=O)c2c1ccc(O)c2O [1,2-Dihydroxyanthraquinone] = 68.9
• CC(=O)OC1C=CCC2C(=O)c3cccc(O)c3C(=O)C12 (racemic) = 28.1
• Cc1cc(O)c2c(c1O)C(=O)c1cc(O)cc(O)c1C2=O [Catenarin] = 37.5
